- Target or system: SARS-CoV-2 Mac1 (Severe acute respiratory syndrome coronavirus 2, UniProt P0DTD1)
- Protocol text: biochemical
- Type: binding
- Condition: IC50 (pIC50 ± SEM): IC50, Table 2, synthesized analogs, n=3
Observed property: IC50 (µM)
Give your result in µM as a bare value.

IC50 for COC(=O)c1c(NC(=O)C2CCCCC2C(=O)O)sc2c1CCCCC2 (stereo not drawn) [Compound 15r] ?
6.3

And then COC(=O)c1c(NC(=O)[C@@H]2CCCC[C@H]2C(=O)O)sc2c1CCCCC2 , what is it?
2.7

----------
- Target or system: SARS-CoV-2 Mac1 (Severe acute respiratory syndrome coronavirus 2)
- Protocol text: biochemical
- Type: binding
- Condition: IC50 (pIC50 ± SEM): pIC50 ± SEM, Table 2, synthesized analogs, n=3; given with negative sign
Observed property: pIC50
// pIC50 is dimensionless: -log10 of concentration (M)

Quick one: pIC50 of COC(=O)c1c(NC(=O)[C@@H]2CCCC[C@H]2C(=O)O)sc2c1CCCCC2 ?
5.56

----------
- Target or system: SARS-CoV-2 Mac1 (Severe acute respiratory syndrome coronavirus 2)
- Protocol text: biochemical
- Assay type: binding
- Condition: FRET assay, SARS-CoV-2 Mac1; text and Fig. 1C

Molecule: CC(=O)c1c(NC(=O)C2CC=CCC2C(=O)O)sc2c1CCCCC2 (centres unmarked)
IC50: inactive
--
Molecule: N#Cc1c(NC(=O)C2CC=CCC2C(=O)O)sc2c1CCCCC2 (centres unmarked)
IC50: inactive

----------
- Target or system: ALC1 (Homo sapiens, UniProt Q86WJ1)
- Sequence (Q86WJ1 704-897 limits assumed): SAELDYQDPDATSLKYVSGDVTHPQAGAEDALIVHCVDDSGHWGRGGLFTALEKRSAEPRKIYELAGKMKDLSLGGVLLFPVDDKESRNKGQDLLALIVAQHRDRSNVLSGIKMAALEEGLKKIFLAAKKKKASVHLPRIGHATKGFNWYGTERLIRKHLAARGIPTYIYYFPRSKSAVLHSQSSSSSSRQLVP
- Protocol text: FRET profiling / potency against ALC1 with YFP-GAP(PAR)
- Format: binding
- Condition: partial inhibition only; read-out: IC50
Observed property: pIC50
Remember, pIC50 is on a log scale: it is -log10 of the molar concentration.

Would you mind telling me what pIC50 value was observed for COC(=O)c1c(NC(=O)C2CC=CCC2C(=O)O)sc2c1CCCCC2 (stereo not shown) ?
5.17
